measurement_notes: pilot pharmacokinetic study of linifanib in rats (oral)
Assay type: in vivo
settings: male, Wistar albino, plasma; rat, 5 mg/kg oral, single dose; read-out: mean peak plasma concentration (Cmax)
Experimental: After an overnight fasting, all rats received linifanib (5 mg/kg, oral, dissolved in HPMC). Blood samples (approximately 0.5 mL) were collected from the retro-orbital plexus into heparinized microfuge tubes at different time interval after linifanib administration and plasma samples were harvested by centrifuging the blood at 4500 rpm for 8 min and stored frozen at −80 ± 10°C until analysis. The pharmacokinetic parameters: Cmax, Tmax, AUC, t½ and Kel were calculated using WinNonlin software.
quantity: Cmax (ng/mL)
The reply should contain only the number, in ng/mL.

What measured Cmax goes with Cc1ccc(F)c(NC(=O)Nc2ccc(-c3cccc4[nH]nc(N)c34)cc2)c1 ?
55.1
